- assayed_target: human ciliary process beta-adrenergic receptors (Homo sapiens, UniProt P07550)
- Construct: ciliary process from human donor eyes was assayed biochemically; from tissue; host or cells: ciliary process from human donor eyes
- Sequence (P07550 whole entry): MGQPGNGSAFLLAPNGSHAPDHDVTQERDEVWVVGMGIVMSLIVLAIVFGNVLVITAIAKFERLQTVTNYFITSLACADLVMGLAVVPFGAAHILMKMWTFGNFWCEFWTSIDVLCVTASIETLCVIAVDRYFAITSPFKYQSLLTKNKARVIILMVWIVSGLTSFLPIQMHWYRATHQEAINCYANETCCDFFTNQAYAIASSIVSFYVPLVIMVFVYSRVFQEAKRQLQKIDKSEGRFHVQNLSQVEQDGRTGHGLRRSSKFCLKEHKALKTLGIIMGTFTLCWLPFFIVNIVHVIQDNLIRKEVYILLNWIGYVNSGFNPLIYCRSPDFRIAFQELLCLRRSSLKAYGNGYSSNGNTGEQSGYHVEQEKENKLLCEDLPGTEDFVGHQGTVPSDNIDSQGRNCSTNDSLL
- experiment_notes: biochemical
- experimental_context: inhibition of isoproterenol stimulation of human ciliary process adenylate cyclase; read-out: calculated inhibitory constant (Ki)
recorded_endpoint: Ki

Qu. Ki for Cc1ccc(C(O)C(C)NC(C)C)cc1 (stereo not shown) ?
Ans. 740 nM

====

Entries and their Ki values follow.
- assayed_target: rabbit ciliary process adenylate cyclase (Oryctolagus cuniculus, UniProt G1TAV7)
- Construct: After isolation of the ciliary process, adenylate cyclase activity was measured
- Sequence (G1TAV7 1-437): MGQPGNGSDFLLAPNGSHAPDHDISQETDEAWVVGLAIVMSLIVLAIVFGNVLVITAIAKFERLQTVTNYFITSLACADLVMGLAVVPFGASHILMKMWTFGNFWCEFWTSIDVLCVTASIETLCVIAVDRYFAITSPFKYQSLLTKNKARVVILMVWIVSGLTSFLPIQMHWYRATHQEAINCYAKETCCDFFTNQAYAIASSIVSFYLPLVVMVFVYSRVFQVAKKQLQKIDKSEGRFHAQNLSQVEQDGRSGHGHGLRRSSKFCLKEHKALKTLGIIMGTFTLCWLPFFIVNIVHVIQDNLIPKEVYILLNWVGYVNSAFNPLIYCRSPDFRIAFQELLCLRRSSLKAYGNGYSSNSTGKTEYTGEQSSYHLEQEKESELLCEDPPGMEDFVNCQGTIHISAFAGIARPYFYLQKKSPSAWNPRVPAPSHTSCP
- experiment_notes: Rabbit ciliary process beta-adrenergic sensitive adenylate cyclase activity
- experimental_context: antagonists; inhibition of isoproterenol-stimulated activity; Table I; read-out: Adenylate Cyclase Ki, Ciliary Process Rabbit (B)
Only the number, expressed in nM, is required.

// solved cases for Ki follow
compound | Ki [nM]
CC(C)NCC(O)COc1ccc(CC(N)=O)cc1 (stereo not drawn) | 21000
CC(C)(C)NC[C@H](O)COc1nsnc1N1CCOCC1 | 6.4
CC(=O)Nc1ccc(OCC(O)CNC(C)C)cc1 (stereo not drawn) | 39000
Cc1ccc(OCC(O)C(C)NC(C)C)c2c1CCC2 (stereo not drawn) | 3
Cc1ccc(C(O)C(C)NC(C)C)cc1 (stereo not drawn) | 700

Proceeding to the next compound to report its Ki.
Qu. Requested read-out: Ki. Entry: COc1ccc(OC)c(C(O)C(C)NC(C)(C)C)c1 (stereo not drawn)
Ans. 1530

====

- assayed_target: heart adenylate cyclase
- experiment_notes: Heart adenylate cyclase activation and inhibition
- experimental_context: antagonists; Table I; ** data from the present inventor, method (a); read-out: Adenylate Cyclase Ki, Heart (G)
Counter-ions that a name gives are not always drawn.
recorded_endpoint: Ki

compound | Ki
Cc1ccc(OCC(O)C(C)NC(C)C)c2c1CCC2 (stereo not drawn) | 1760 nM
COc1ccc(OC)c(C(O)C(C)NC(C)(C)C)c1 (stereo not drawn) | 15000 nM
CC(C)(C)NCC(O)CON=C1c2ccccc2-c2ccccc21 (stereo not drawn) [IPS 339, hydrochloride] | 1120 nM
CC(=O)Nc1ccc(OCC(O)CNC(C)C)cc1 (stereo not drawn) | 5500 nM
CC(C)NCC(O)COc1ccc(CC(N)=O)cc1 (stereo not drawn) | 2700 nM

Qu. Item: `CC(C)(C)NC[C@H](O)COc1nsnc1N1CCOCC1` Test system: heart adenylate cyclase Read-out: Ki Value: ?
Ans. 20 nM

====

- assayed_target: beta-adrenergic sensitive adenylate cyclase present in mammalian choroid plexus (Felis catus, UniProt Q9TST5)
- Construct: are prepared from the various tissues to be studied (e.g., ciliary process, choroid plexus, heart or lung); from tissue; host or cells: choroid plexus (homogenate or washed particulate)
- Sequence (Q9TST5 whole entry): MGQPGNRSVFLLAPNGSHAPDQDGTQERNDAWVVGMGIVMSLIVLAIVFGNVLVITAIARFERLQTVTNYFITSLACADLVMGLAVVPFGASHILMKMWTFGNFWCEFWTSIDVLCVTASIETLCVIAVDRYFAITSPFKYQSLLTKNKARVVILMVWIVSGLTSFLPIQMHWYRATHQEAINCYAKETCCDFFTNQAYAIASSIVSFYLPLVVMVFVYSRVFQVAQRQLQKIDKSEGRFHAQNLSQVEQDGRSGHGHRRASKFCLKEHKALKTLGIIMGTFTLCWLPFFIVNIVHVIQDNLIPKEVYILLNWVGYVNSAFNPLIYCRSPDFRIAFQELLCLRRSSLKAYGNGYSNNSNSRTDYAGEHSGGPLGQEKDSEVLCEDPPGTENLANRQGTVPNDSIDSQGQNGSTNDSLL
- experiment_notes: Choroid plexus adenylate cyclase activity
- Type: biochemical
- experimental_context: agonists; Table I; read-out: Adenylate Cyclase Ka, Choroid Plexus (C)
recorded_endpoint: pEC50
Quick note: pEC50 means taking -log10 of the concentration in moles per liter.

Qu. Tell me the measured pEC50 of NC[C@H](O)c1ccc(O)c(O)c1 [Norepinephrine] , please.
Ans. 4.60

====

- assayed_target: rabbit ciliary process adenylate cyclase (Oryctolagus cuniculus)
- Construct: After isolation of the ciliary process, adenylate cyclase activity was measured; from tissue; host or cells: rabbit ciliary process
- experiment_notes: Rabbit ciliary process beta-adrenergic sensitive adenylate cyclase activity
- Format: biochemical
Attribute: EC50
In your response, put the unit directly after the numeric value.

compound | EC50
CNC[C@H](O)c1ccc(O)c(O)c1 [Epinephrine] | 2.4 µM

API: the following record is the query input.
Qu. What does the data say about its EC50? Entry: NC[C@H](O)c1ccc(O)c(O)c1 [Norepinephrine]
Ans. 29 µM
